Target or system Serine/threonine-protein kinase pim-1 (Homo sapiens, UniProt P11309); metric pKi; compiled from varied reports.
Answers are plain numbers, as −log10 of the molar value.

{"compound": "Cn1ncc(NC(=O)c2nc(-c3c(F)cncc3F)sc2N)c1N1CCC(N)CC(F)(F)C1 (racemic)", "reported.property": "pKi", "numeric.value": 11.10}
{"compound": "O=C1CNCCN1c1cc2c(-c3cccc(N4CCNCC4)n3)n[nH]c2cn1", "reported.property": "pKi", "numeric.value": 6.66}

Go through the items and report each one's pKi.
1. Cn1cc(-c2cc3c(-c4ccnc(N5CCC[C@@H](N)C5)n4)n[nH]c3cn2)cn1
2. CN[C@H]1CCCN(c2c(NC(=O)c3nc(-c4c(F)cccc4F)sc3N)cnn2C)CC1
3. Cn1cc(-c2cc3c(-c4ccccn4)n[nH]c3cn2)cn1
4. Cn1ncc(NC(=O)c2nc(-c3ccccc3F)ccc2N)c1N1CCC(N)C(F)CC1 (single isomer, unassigned)
5. Nc1sc(-c2c(F)cccc2F)nc1C(=O)Nc1cnccc1N1CCC[C@H](O)C1
6. Cn1cc(-c2cc3c(-c4cccc(NCC(C)(C)O)n4)n[nH]c3cn2)cn1
7. N[C@@H]1CCCN(c2ccc(-c3n[nH]c4cnc(-c5cccnc5)cc34)cn2)C1
8. Nc1sc(-c2cc(Br)ccc2F)nc1C(=O)Nc1cnccc1N1CCC[C@H](N)C1

1: 10.28; 2: 10.02; 3: 8.11; 4: 9.83; 5: 10.57; 6: 10.47; 7: 9.39; 8: 10.64

###

pKi: −log10 of the molar value.
pKi values for Serine/threonine-protein kinase pim-1 (Homo sapiens), compiled from several publications.
pKi vs 9: at or above is Met, below is Not met.

{"molecule": "[2H]C([2H])([2H])OC1CCN(c2c(NC(=O)c3nc(-c4ccccc4F)sc3N)cnn2C)CCC1N (stereo not drawn)", "class.name": "Met"}
{"molecule": "OCCN1CCN(c2cccc(-c3n[nH]c4cnc(-c5cccnc5)cc34)n2)CC1", "class.name": "Met"}
{"molecule": "CO[C@H]1CCN(c2c(NC(=O)c3nc(-c4c(F)cccc4F)sc3N)cnn2C2CC2)CC[C@@H]1N", "class.name": "Met"}
{"molecule": "Cn1ccc(-c2n[nH]c3cnc(-c4cncc(N5CCC(N)CC5)n4)cc23)n1", "class.name": "Met"}
{"molecule": "Cn1ncc(NC(=O)c2nc(-c3ccccc3F)cnc2N)c1N1CCC(N)C(F)CC1 (single isomer, unassigned)", "class.name": "Met"}
{"molecule": "Nc1sc(-c2c(F)cccc2F)nc1C(=O)Nc1cnn(CC2COC2)c1N1CCNCC1", "class.name": "Not met"}

Record Cn1ncc(NC(=O)c2nc(-c3c(F)cccc3F)sc2N)c1N1CC[C@H](CN)C1 ; criterion: pKi no lower than 9. Met?
Met

Follow-up item: Cc1ccc(F)c(-c2nc(C(=O)Nc3cnn(C)c3N3CC[C@@H](N)[C@@H](F)CC3)c(N)s2)c1
Met

Same for Cn1cc(-c2cc3c(-c4cccc(N5CCC(N)(C(F)(F)F)C5)n4)n[nH]c3cn2)cn1 (stereo not drawn)
Met

What do you have for Cn1ncc(NC(=O)c2nc(-c3ccccc3F)ccc2N)c1N1CCC[C@H](CN)C1 ?
Met
